# measured.target: USP22 C171 (Q9UPT9) (Homo sapiens)
# assay: Competitive isoTOP-ABPP, cell lysates
# Type: binding
# settings: 500 μm, in-vitro_ramos
Let's look at some compounds and their measured isoTOP-ABPP reactivity ratio, Q9UPT9_C171.
Give the figure by itself; no unit, no explanation.

Take a look at these entries with their results.
compound	numeric.result
CC(C)(C)c1cc(NC(=O)CCl)on1 [compound 32]	9.3
CCN(CC)c1ccc(S(N)(=O)=O)cc1NC(=O)CCl [compound 30]	2.3
Cc1ccc(C=C(C#N)C(=O)NCCN2CCOCC2)cc1 [compound 41]	1.4

Here is another compound to look at.
isoTOP-ABPP reactivity ratio, Q9UPT9_C171 value, target or system USP22 C171 (Q9UPT9) (Homo sapiens), for O=C(CCl)Nc1ccccc1C1CCCCCC1 [compound 35] : 1.5

----------
# measured.target: UBE2S C118 (Q16763) (Homo sapiens, UniProt Q16763)
# Sequence (Q16763 1-222): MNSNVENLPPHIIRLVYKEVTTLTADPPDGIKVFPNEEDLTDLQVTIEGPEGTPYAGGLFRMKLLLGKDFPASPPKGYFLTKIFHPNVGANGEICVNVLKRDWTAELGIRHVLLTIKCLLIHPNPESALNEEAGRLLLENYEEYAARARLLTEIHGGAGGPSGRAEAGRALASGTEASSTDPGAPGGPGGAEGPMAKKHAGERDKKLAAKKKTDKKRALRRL
# assay: Competitive isoTOP-ABPP, cell lysates
# Format: binding
# settings: 500 μm, in-vitro_ramos_231
readout: isoTOP-ABPP reactivity ratio, Q16763_C118
Keep it simple and answer with nothing but the number.

Some solved cases for reference:
compound	numeric.result
C=CC(=O)Nc1cc(F)c(N2CCN(C(=O)OC(C)(C)C)CC2)c(F)c1	1.0
C=CC(=O)N(Cc1cccnc1)c1cc(C(F)(F)F)cc(C(F)(F)F)c1	0.9
CC(C)(C)c1cc(NC(=O)CCl)on1	1.1

Query COC(=O)C1Cc2ccccc2CN1C(=O)CCl (centres unmarked) on UBE2S C118 (Q16763) (Homo sapiens, UniProt Q16763); isoTOP-ABPP reactivity ratio, Q16763_C118 returned: 1.4

UBE2S C118 (Q16763) (Homo sapiens, UniProt Q16763) isoTOP-ABPP reactivity ratio, Q16763_C118 of `C=CC(=O)Nc1cc(C)c(Br)cc1C` is 0.9

----------
# measured.target: UniProt:P68036
# assay: Competitive isoTOP-ABPP, cell lysates;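 on isoTOP-ABPP reactivity profile ratio, P68036 C86: Heavy/light ratio DMSO over fragment-treated so higher means more cysteine engagement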
# Type: binding
# settings: 500 μm, in-vitro_ramos_231
readout: isoTOP-ABPP reactivity profile ratio, P68036_C86
The response must contain the number and no unit.

Below: 3 compounds and their reported isoTOP-ABPP reactivity profile ratio, P68036_C86.
compound	numeric.result
Cc1ccc(C(F)(F)F)cc1NC(=O)CCl [compound 49]	1.9
C=CC(=O)N1CCC(Cc2ccccc2)CC1 [compound 53]	1.0
O=C(CCl)Nc1ccc(-c2ccccc2)cc1 [compound 52]	0.8

Measured on UniProt:P68036, COc1cc(NC(=O)CCl)cc(OC)c1 [compound 43] has a documented isoTOP-ABPP reactivity profile ratio, P68036_C86 of 1.1

I looked up C=CC(=O)N(c1ccccc1)C1CCCCC1 [compound 46] and its isoTOP-ABPP reactivity profile ratio, P68036_C86 for UniProt:P68036 was 1.2

Assay UniProt:P68036, sample CCCN(C(=O)CCl)c1c(N)n(CCC)c(=O)[nH]c1=O [compound 55] , isoTOP-ABPP reactivity profile ratio, P68036_C86 read: 1.0

Where do the numbers come from? From patent US10670605B2.
